Overview of reported MIC across a group of compounds:
# Test system: Nakaseomyces glabratus
# Procedure Text: Antifungal activity against clinical isolate Candida glabrata assessed as inhibition of fungal growth by microdilution method
# Format: functional
Write the value in µg/mL as a bare number.

Compound	Measurement Label	Endpoint Result
OC(C[Se]c1ccc(F)cc1)(Cn1cncn1)c1ccc(F)cc1F (stereo unspecified)	MIC	4
Cc1ccc(C)c([Se]CC(O)(Cn2cncn2)c2ccc(F)cc2F)c1 (stereo unspecified)	MIC	2
OC(C[Se]Cc1ccc(F)cc1)(Cn1cncn1)c1ccc(F)cc1F (stereo unspecified)	MIC	1

Read off the recorded MIC for OC(C[Se]Cc1ccc(C(F)(F)F)cc1)(Cn1cncn1)c1ccc(F)cc1F (stereo unspecified)
4

Read off the recorded MIC for COc1cccc(C[Se]CC(O)(Cn2cncn2)c2ccc(F)cc2F)c1 (stereo unspecified)
4

Read off the recorded MIC for Cc1ccccc1[Se]CC(O)(Cn1cncn1)c1ccc(F)cc1F (stereo unspecified)
0.5

----------
# System: Nakaseomyces glabratus
# Procedure Text: Antifungal activity against clinical isolate Candida glabrata assessed as inhibition of fungal growth by microdilution method
# Format: functional
Measurement Label: MIC (µg/mL)
Write the value in µg/mL as a bare number.

Field: example entries. Status: answers known.
Compound	MIC / µg/mL
Cc1cccc([Se]CC(O)(Cn2cncn2)c2ccc(F)cc2F)c1 (stereo unspecified)	2
OC(C[Se]Cc1ccccc1Cl)(Cn1cncn1)c1ccc(F)cc1F (stereo unspecified)	0.5

Read off the recorded MIC for Cc1ccc(C[Se]CC(O)(Cn2cncn2)c2ccc(F)cc2F)cc1 (stereo unspecified)
2

Read off the recorded MIC for Cc1cccc(C[Se]CC(O)(Cn2cncn2)c2ccc(F)cc2F)c1 (stereo unspecified)
4

Read off the recorded MIC for OC(C[Se]Cc1ccccc1Br)(Cn1cncn1)c1ccc(F)cc1F (stereo unspecified)
4

Read off the recorded MIC for OC(C[Se]Cc1cccc(F)c1)(Cn1cncn1)c1ccc(F)cc1F (stereo unspecified)
2

----------
# Tested on: Candida albicans
# Procedure Text: Antifungal activity against Candida albicans CPCC 400616 assessed as inhibition of fungal growth by microdilution method
# Assay type: functional
Measurement Label: log10 of MIC (log10 of the value in µg/mL)
Give log10 of MIC, with MIC taken in µg/mL.

Field: example entries. Status: answers known.
Molecule	Measurement Label	Endpoint Result
OC(C[Se]Cc1ccc(F)cc1)(Cn1cncn1)c1ccc(F)cc1F (stereo not drawn)	log10 of MIC	-1.22
OC(C[Se]Cc1cccc(F)c1)(Cn1cncn1)c1ccc(F)cc1F (stereo not drawn)	log10 of MIC	-1.22
Cc1cc(C)cc([Se]CC(O)(Cn2cncn2)c2ccc(F)cc2F)c1 (stereo not drawn)	log10 of MIC	-1.22

Read off the recorded log10 of MIC for CCc1ccc([Se]CC(O)(Cn2cncn2)c2ccc(F)cc2F)cc1 (stereo not drawn)
0.00

Read off the recorded log10 of MIC for COc1cccc(C[Se]CC(O)(Cn2cncn2)c2ccc(F)cc2F)c1 (stereo not drawn)
-0.60

Read off the recorded log10 of MIC for COc1ccc([Se]CC(O)(Cn2cncn2)c2ccc(F)cc2F)cc1 (stereo not drawn)
-0.60

Read off the recorded log10 of MIC for OC(C[Se]Cc1ccccc1Cl)(Cn1cncn1)c1ccc(F)cc1F (stereo not drawn)
-0.90

Read off the recorded log10 of MIC for Cc1cccc(C)c1[Se]CC(O)(Cn1cncn1)c1ccc(F)cc1F (stereo not drawn)
-1.22

Read off the recorded log10 of MIC for Cc1cccc([Se]CC(O)(Cn2cncn2)c2ccc(F)cc2F)c1 (stereo not drawn)
-0.60

Read off the recorded log10 of MIC for Cc1ccc(C)c([Se]CC(O)(Cn2cncn2)c2ccc(F)cc2F)c1 (stereo not drawn)
0.00

Read off the recorded log10 of MIC for Cc1cccc(C[Se]CC(O)(Cn2cncn2)c2ccc(F)cc2F)c1 (stereo not drawn)
-0.90

Read off the recorded log10 of MIC for Cc1ccccc1[Se]CC(O)(Cn1cncn1)c1ccc(F)cc1F (stereo not drawn)
0.00

----------
# System: Cryptococcus neoformans
# Procedure Text: Antifungal activity against Cryptococcus neoformans CGMCC 2.3161 assessed as inhibition of fungal growth by microdilution method
# Assay type: functional
Measurement Label: MIC (µg/mL)
Write the value in µg/mL as a bare number.

Field: example entries. Status: answers known.
Compound	MIC (µg/mL)
OC(C[Se]Cc1ccccc1Br)(Cn1cncn1)c1ccc(F)cc1F (stereo not drawn)	1
Cc1cccc(C[Se]CC(O)(Cn2cncn2)c2ccc(F)cc2F)c1 (stereo not drawn)	1

Next compound, please.
Read off the recorded MIC for OC(C[Se]Cc1ccccc1Cl)(Cn1cncn1)c1ccc(F)cc1F (stereo not drawn)
0.25

----------
# System: Candida albicans
# Procedure Text: Antifungal activity against Candida albicans CPCC 400616 assessed as inhibition of fungal growth by microdilution method
# Type: functional
Overview of reported MIC across a group of molecules:
Write the value in µg/mL as a bare number.

Field: example entries. Status: answers known.
Molecule	Measurement Label	Endpoint Result
Cc1ccc(C[Se]CC(O)(Cn2cncn2)c2ccc(F)cc2F)cc1 (stereo unspecified)	MIC	0.125
OC(C[Se]c1ccc(F)cc1)(Cn1cncn1)c1ccc(F)cc1F (stereo unspecified)	MIC	0.25
OC(C[Se]Cc1ccccc1Br)(Cn1cncn1)c1ccc(F)cc1F (stereo unspecified)	MIC	0.25

# return MIC of CCc1ccccc1[Se]CC(O)(Cn1cncn1)c1ccc(F)cc1F (stereo unspecified) (system: Candida albicans)
0.25

# return MIC of COc1cccc([Se]CC(O)(Cn2cncn2)c2ccc(F)cc2F)c1 (stereo unspecified) (system: Candida albicans)
0.5

# return MIC of OC(C[Se]Cc1ccc(C(F)(F)F)cc1)(Cn1cncn1)c1ccc(F)cc1F (stereo unspecified) (system: Candida albicans)
0.03
